Source of measurements: paper PMC3717159

- PROCEDURE_SUMMARY: Pharmacokinetics in mice
- TEST_CONDITIONS: mouse, in vivo, oral
EXPERIMENTAL_ENDPOINT: half-life (h)
Kindly answer with a numeric value in h, unit omitted.

Endpoint output: half-life of Cc1ccc(C(=O)Nc2ccc(Oc3cc4cnn(C)c4cc3-c3cn[nH]c3)c(F)c2)c(=O)n1-c1ccc(F)cc1 . Value? 2.9
